meta.source: patent US5288751A

# Tested on: Stimulated LTB4 Formation in Human Whole Blood
# protocolNotes: Calcium ionophore (A23187)-induced LTB4 biosynthesis in human whole blood (in vitro leukotriene biosynthesis inhibition)
# Type: cell-based
# conditionLabel: human heparinized whole blood; 15 min preincubation at 37° C.; A23187 8.3 μM, 30 minutes
# Protocol: Inhibition of leukotriene biosynthesis was evaluated in an assay, involving calcium ionophore-induced LTB4 biosynthesis expressed human whole blood. […] The methanol extract was analyzed for LTB4 using a commercially available radioimmunoassay. […]
Attribute: IC50
recordedEndpoint: IC50 (nM)

INSERT INTO measurements (compound, valueobserved) VALUES
  ('CC(C#Cc1ccc(/C=C/c2ccc(F)cc2)o1)N(O)C(N)=O (stereo not drawn)', 620),
  ('C[C@H](C#Cc1ccc(Cc2ccc(F)cc2)s1)N(O)C(N)=O', 70),
  ('CC(C#Cc1ccc(Cc2ccc(F)cc2)s1)N(O)C(N)=O (stereo not drawn)', 70),
  ('CC(C#Cc1ccc(/C=C/c2ccccn2)o1)N(O)C(N)=O (stereo not drawn)', 350),
  ('CC(C#Cc1ccc(Cc2ccc(F)cc2)o1)N(O)C(N)=O (stereo not drawn)', 60),
  ('Cc1ccc(/C=C/c2ccc(C#CC(C)N(O)C(N)=O)o2)cc1 (stereo not drawn)', 300);

* * *

Attribute: % inhibition of stimulated LTB4 formation in human whole blood
# Tested on: Stimulated LTB4 Formation in Human Whole Blood
# protocolNotes: Calcium ionophore (A23187)-induced LTB4 biosynthesis in human whole blood (in vitro leukotriene biosynthesis inhibition)
# Format: cell-based
# conditionLabel: human heparinized whole blood; A23187 8.3 μM, 30 minutes; test concentration not stated
recordedEndpoint: % inhibition of stimulated LTB4 formation in human whole blood

INSERT INTO results (compound, valueobserved) VALUES
  ('CC(C#Cc1ccc(C(=O)c2ccc(F)cc2)o1)N(O)C(N)=O (stereo not shown) [Example 2]', '72%'),
  ('CC(C#Cc1ccc(/C=C/c2ccc(F)cc2)s1)N(O)C(N)=O (stereo not shown) [Example 8]', '62%'),
  ('CC(C#Cc1ccc(/C=C/c2ccccc2)o1)N(O)C(N)=O (stereo not shown) [Example 6]', '40%'),
  ('CC(C#Cc1ccc(/C=C/c2cccnc2)o1)N(O)C(N)=O (stereo not shown) [Example 4]', '39%');
